# experimentalTarget: Glutamate receptor ionotropic, kainate 2 (Homo sapiens)
# assayInfo: Antagonist activity at GluK2 (unknown origin) transfected in HEK293 cells assessed as inhibition of L-glutamate-induced peak current responses at 1 mM compound added in background solution by electrophysiological analysis relative to control
# Assay type: cell-based
Activity calls are given as the source filed them. The rule behind the calls is not given here.
readoutName: inhibition

Some solved entries appear below for comparison.
smilesinput=CC[C@@H](CC(=O)O)[C@H](N)C(=O)O readoutname=inhibition observedresult=46%
smilesinput=CC(C)C[C@@H](CC(=O)O)[C@H](N)C(=O)O readoutname=inhibition observedresult=inactive
smilesinput=C[C@@H](CC(=O)O)[C@H](N)C(=O)O readoutname=inhibition observedresult=38%
smilesinput=N[C@H](C(=O)O)[C@H](CC(=O)O)c1ccccc1 readoutname=inhibition observedresult=inactive

Okay, next one:
Can you look up the measured inhibition of "CCC[C@@H](CC(=O)O)[C@H](N)C(=O)O" for me?
95%
